Where these numbers come from: ChEMBL document CHEMBL4622868

- assay.method.text: Hemolytic activity against RBC (unknown origin) at 20 uM
- Format: ADME, cell-based, Erythrocyte
- experimental.parameters: red blood cells (erythrocytes); read-out: Activity
Non-standard residues stand in square brackets, D forms with d. Residues, ends and D or L forms follow the SMILES beside them. Orn = NCCC[C@H](N)C(=O)O
observation.type: hemolysis at 20 µM (%)

• CCCCCCCCCCCCCC[P+](Cc1ccccc1O)(c1ccccc1)c1ccccc1.[Cl-] = 0
• CCCCCCCC[P+](Cc1ccccc1O)(c1ccccc1)c1ccccc1.[Cl-] = 0
• CCCCCCCCCCCCCCCCCC[P+](Cc1ccccc1O)(c1ccccc1)c1ccccc1.[Cl-] = 1.2
• CCCCCCCCCCCC[P+](Cc1ccccc1O)(c1ccccc1)c1ccccc1.[Cl-] = 1.8
• CC(C)C[C@@H]1NC(=O)[C@H](CCCN)NC(=O)[C@H](C(C)C)NC(=O)[C@@H]2CCCN2C(=O)[C@@H](Cc2ccccc2)NC(=O)[C@H](CC(C)C)NC(=O)[C@H](CCCN)NC(=O)[C@H](C(C)C)NC(=O)[C@@H]2CCCN2C(=O)[C@@H](Cc2ccccc2)NC1=O (cyclo(L[dF]PV[Orn]L[dF]PV[Orn])) = 24
• CCCCCC[P+](Cc1ccccc1O)(c1ccccc1)c1ccccc1.[Cl-] = 0.2
• CCCCCCCCCCCCCCCC[P+](Cc1ccccc1O)(c1ccccc1)c1ccccc1.[Cl-] = 2.1
• CCCCCCC[P+](Cc1ccccc1O)(c1ccccc1)c1ccccc1.[Cl-] = 0.3
• CCCCCCCCCC[P+](Cc1ccccc1O)(c1ccccc1)c1ccccc1.[Cl-] = 1.3
